test system: HCT-15 colon; test: NCI-60 one-dose screen, 48 h (100 = growth as untreated, 0 = no growth, -100 = all killed); settings: 10 µM
The panel holds about 83,000 compounds, 20% with a hit somewhere; the sample as a whole holds those more often.
Assign class by growth: not lower than 10% means rule met; lower than 10% means rule not met.

These recorded examples may help you get a feel for the data.
{"Line notation": "O=C(/C=C/c1ccc(F)cc1)c1nc2ccccc2n1Cc1ccc(F)cc1", "Experimental target": "HCT-15 colon", "Class label": "rule not met"}
{"Line notation": "O=C(/C=C/c1ccc(Cl)cc1Cl)c1nc2ccccc2n1Cc1ccc(F)cc1", "Experimental target": "HCT-15 colon", "Class label": "rule met"}
{"Line notation": "C=CCN=C([Se])NC(=O)c1ccc2c(c1)OCO2", "Experimental target": "HCT-15 colon", "Class label": "rule met"}
{"Line notation": "CC(=O)Oc1ccccc1C(=O)NC([Se])=NC1CCCCC1", "Experimental target": "HCT-15 colon", "Class label": "rule not met"}

Ask | Test whether the compound C[C@H]1[C@H](OC(=O)CCC(=O)N(CCCc2cn(-c3ccc(C#N)cc3)nn2)CCNc2ccnc3cc(Cl)ccc23)O[C@@H]2OC3(C)CC[C@H]4[C@H](C)CC[C@@H]1[C@@]24OO3 records growth of 10% or higher.
Reply | rule met

---

test system: MDA-MB-468 breast; experiment: NCI-60 one-dose screen, 48 h; details: 10 µM unless noted
Compounds without any hit were thinned out: in the full panel of roughly 83,000, 20% have a hit. Calls of active or inactive are those of the source. The calls were made as follows: active = growth percent below 10; inactive = the rest.
Hi! Could you answer with just one of these? active, inactive

These recorded examples may help you get a feel for the data.
{"Compound": "COC(=O)CC[C@H](Cc1ccccc1)NC(=O)c1csc([C@@H](C[C@H](C(C)C)N(C)C(=O)[C@@H](NC(=O)[C@H]2CCCCN2C)C(C)C)OC(C)=O)n1", "Class label": "inactive"}
{"Compound": "CC1=C(CN(O)C(N)=O)C2=C(C)C3(CC3)[C@](C)(O)C(=O)C2=C1", "Class label": "active"}
{"Compound": "CNC(=O)Oc1ccc2c(c1)OCO2", "Class label": "inactive"}
{"Compound": "O=C1CNC(c2ccccc2)c2cc(Cl)ccc2N1 (stereo not drawn)", "Class label": "inactive"}
{"Compound": "O=C(N/N=C\\c1ccc(N(CCCl)CCCl)cc1Cl)c1cccnc1", "Class label": "active"}
{"Compound": "CC(=O)O[C@H]1CC[C@@]2(C)C(=CC[C@H]3[C@@H]4C[C@@H](N5CC5)[C@H](C(C)=O)[C@@]4(C)CC[C@@H]32)C1", "Class label": "inactive"}
{"Compound": "O=C(c1cccc(O)c1O)c1cn(Cc2ccc(F)cc2)c2cccc(O)c12", "Class label": "inactive"}
{"Compound": "COc1cc(C2=NN(c3ccccc3)C(c3sc(N(CCCl)CCCl)nc3Cl)C2)cc(OC)c1OC (stereo not drawn)", "Class label": "inactive"}

Ask | What classification did CCC1(C)CC(CCNCc2ccccc2O)(c2ccc(C)cc2)CCO1 (stereo not drawn) end up with in this test?
Reply | inactive

Ask | Subsequent entry: CCN1C(=O)NC(=O)C(C)(N2C(=O)c3c(F)c(F)c(F)c(F)c3C2=O)C1=O (stereo not drawn)
Reply | active

Ask | Subsequent entry: NC(N)=NC(N)=Nc1ccc(Cl)cc1
Reply | inactive

Ask | Subsequent entry: CCOc1ccc(C(O)CN(C)Cc2ccccc2)cc1Cl (stereo not drawn)
Reply | inactive

Ask | Subsequent entry: CC[C@H](C)[C@H](NC(=O)[C@H]1CCCCN1C)C(=O)N(C)[C@H](C[C@@H](OC(C)=O)c1nc(C(=O)N[C@@H](Cc2ccccc2)C[C@H](C)C(=O)OC)cs1)C(C)C
Reply | active

Ask | Subsequent entry: CN(C)CC(C(=O)Cc1ccccc1)c1ccccc1 (stereo not drawn)
Reply | active

Ask | Subsequent entry: O=[N+]([O-])c1cccc([As]=[As]c2cccc([N+](=O)[O-])c2)c1 (stereo not drawn)
Reply | active

Ask | Subsequent entry: O=C(NC1=NCC[Se]1)c1ccccc1O
Reply | inactive

Ask | Subsequent entry: COc1ccc(/C(C)=C(\c2ccc(OCCN3CCOCC3)cc2)c2ccc(OC(=O)Cc3ccccc3)cc2)cc1
Reply | inactive

Ask | Subsequent entry: CCCCCCCCCCCCCCCCCC1OC[C@@H](COC(=O)O[C@@H](C(=O)O[C@H]2C[C@@]3(O)[C@@H](OC(=O)c4ccccc4)[C@@H]4[C@]5(OC(C)=O)CO[C@@H]5C[C@H](O)[C@@]4(C)C(=O)[C@H](OC(C)=O)C(=C2C)C3(C)C)[C@@H](NC(=O)c2ccccc2)c2ccccc2)O1 (stereo partly drawn)
Reply | inactive

---

system: HL-60(TB) leukemia; test: NCI-60 one-dose screen, 48 h (100 = growth as untreated, 0 = no growth, -100 = all killed); conditions: 10 µM unless noted
This is part of a sample that, as a whole, favours compounds with a hit. Of some 83,000 tested, about 20% had one in any assay.
Outcome measure: growth (%)
Give your result in % as a bare value.

Answered examples (3):
{"Molecule": "CCOC(=O)C1NN(c2ccc(S(N)(=O)=O)cc2)c2nc3nc(-c4cccs4)cc(-c4cccs4)c3c(=O)n21 (centres undefined)", "growth (%)": 96.2}
{"Molecule": "N#Cc1c(NC(=O)c2ccc(C(F)(F)F)cc2)sc2c1CCC(O)=C2", "growth (%)": 6.28}
{"Molecule": "O=C(Cc1c(-c2cccc([N+](=O)[O-])c2)n(-c2ncnc3c2c(-c2ccccc2)c(-c2ccccc2)n3Cc2ccccc2)[nH]c1=O)c1ccc(Cl)c(Cl)c1", "growth (%)": 11.6}

Now take the following molecule into account.
Ask | Need growth of COc1cc(CNC(=O)/C=C/c2ccc3c(c2)OCO3)ccc1OCc1cn(-c2ccc([N+](=O)[O-])cc2)nn1 , thanks.
Reply | 97

---

system: TK-10 renal; assay: NCI-60 one-dose screen, 48 h (100 = growth as untreated, 0 = no growth, -100 = all killed); details: 10 µM
Compounds without any hit were thinned out: in the full panel of roughly 83,000, 20% have a hit.
Outcome measure: growth (%)
Give your result in % as a bare value.

Ask | Need growth of COc1cc2cc(C(=O)N3C[C@@H](CCl)c4c3cc(OC(=O)N3CCN(C(=O)CCC(=O)N5CCN(C)CC5)[C@@H]5CSSC[C@@H]53)c3ccccc43)[nH]c2c(OC)c1OC , thanks.
Reply | 5.55

Ask | Subsequent entry: COP(=O)(CC(F)(F)C(F)(F)F)OC
Reply | -40.6

Ask | Subsequent entry: C[C@H]1[C@H](OC(=O)CCC(=O)N(CCCc2cn(-c3ccc([N+](=O)[O-])cc3)nn2)CCNc2ccnc3cc(Cl)ccc23)O[C@@H]2OC3(C)CC[C@H]4[C@H](C)CC[C@@H]1[C@@]24OO3
Reply | 51.2

---

system: T-47D breast; assay: NCI-60 one-dose screen, 48 h (100 = growth as untreated, 0 = no growth, -100 = all killed); settings: 10 µM
Compounds without any hit were thinned out: in the full panel of roughly 83,000, 20% have a hit. Calls of active or inactive are those of the source. Rule for the calls: active = growth percent below 10; inactive = the rest.
Outcome measure: growth

Ask | Need growth of O=C([Se]C1C=CCCC1)c1ccc(C(=O)[Se]C2C=CCCC2)s1 (stereo unspecified) , thanks.
Reply | -48.1% (active)

Ask | Subsequent entry: O=C(/C=C/c1ccc(Br)cc1)c1nc2ccccc2n1Cc1ccc(Br)cc1
Reply | 1.99% (active)

Ask | Subsequent entry: CC(C)N=C([Se])NC(=O)c1ccccc1
Reply | -34.6% (active)

Ask | Subsequent entry: COc1cc(OC)c(S(=O)(=O)N(CCCl)CCCl)cc1C(=O)/C=C/c1ccc(C)cc1
Reply | 88% (inactive)

---

system: HT29 colon; assay: NCI-60 one-dose screen, 48 h (100 = growth as untreated, 0 = no growth, -100 = all killed); conditions: 10 µM
The panel holds about 83,000 compounds, 20% with a hit somewhere; the sample as a whole holds those more often.
Outcome measure: growth (%)
Give your result in % as a bare value.

{"Compound": "CCOP(=O)(OCC)C(NC(C)=O)C(=O)SCCN (centres undefined)", "Result number": 113}

Ask | growth of COc1cc(OC)c(S(=O)(=O)N(CCCl)CCCl)cc1C(=O)/C=C/c1ccc(C)cc1 on HT29 colon?
Reply | 80.7

Ask | Subsequent entry: O=C(/C=C/c1cccc(Br)c1)c1nc2ccccc2n1Cc1ccc(Br)cc1
Reply | -49

Ask | Subsequent entry: COC(=O)C[C@](O)(CCC(C)C)C(=O)O[C@H]1C(OC)=C[C@@]23CCCN2CCc2cc4c(cc2[C@@H]13)OCO4
Reply | -47.5

Just for reference, PubChem BioAssay (NCI) is where these values come from.
